Parameter composite z-score: see the listing below.
- Measurement Target: Calmodulin-1 (Homo sapiens) (UniProt P0DP23)
- Protocol Details: calcium-bound CALM1 binders on microarrays, profiling panel, artefact control for SMM control-protein annotation, biochemical, small-molecule microarray, Cy5-labelled CALM1, plus calcium (AID 1112);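 also: score merges spot fluorescence with signal to noise from triplicate slides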
- Condition Summary: Cy5-CALM1 binding fluorescence, higher = more signal
A bare number is all that is needed in reply.

As a guide, the following entries are already answered.
Molecule	composite z-score
C#C[C@H](O[Si](C#Cc1ccc(Oc2ccccc2)cc1)(C(C)C)C(C)C)c1ccccc1	-0.571
CC(C)N1C(=O)[C@@]2(Cc3ccccc31)c1ccccc1C(=O)N(Cc1ccccc1Cl)[C@H]2c1ccc(CO)cc1	-0.805
O=C(NCCN1CCOCC1)C1N=C(c2ccc(OCCCO)cc2)N(c2ccccc2)O1 (centres undefined)	-0.177

Inquiry: State the recorded composite z-score for this entry: COC(=O)[C@@]1(Cc2ccc(OC)cc2)[C@H]2c3cc(C(=O)N(C)C)n(Cc4ccc(S(C)(=O)=O)cc4)c3C[C@H]2CN1C(=O)c1ccccc1
Reply text: 0.798

---

- Measurement Target: Pro-neuregulin-1, membrane-bound isoform (Homo sapiens)
- Protocol Details: NRG1 binders on small-molecule microarrays, primary screen, psychiatric disease protein project, biochemical, small-molecule microarray, fluorescence 635/667 (AID 1075);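 also: score combines 667 nm spot fluorescence with signal to noise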
- Condition Summary: NRG1 binding, 635 nm fluorescence, higher = more signal
Parameter composite z-score: see the listing below.

Compound	Measurement Target	Measured Value
CN1C(=O)C2C=CC(C(O)c3ccccc3)N(N(c3ccccc3)c3ccccc3)C2C1=O (stereo not given)	Pro-neuregulin-1, membrane-bound isoform (Homo sapiens)	0.647
CCOC(=O)C[C@H]1[C@H](OC(=O)c2ccc(C(=O)c3ccccc3)cc2)[C@@H](NC(=O)c2ccccc2)c2cc(OCCCO)ccc2N1C(=O)c1ccc2ccccc2n1	Pro-neuregulin-1, membrane-bound isoform (Homo sapiens)	0.682
CCCC[C@H]1OB(O)C[C@H]2C1=C(COC)Cn1c(=O)n(-c3ccccc3)c(=O)n12	Pro-neuregulin-1, membrane-bound isoform (Homo sapiens)	-0.19

Inquiry: Write down the reported composite z-score of NC(=O)NCC#Cc1ccc2c(c1)[C@]1(C(=O)N2)[C@H](c2ccccc2OCCO)N2[C@H](c3ccccc3)[C@H](c3ccccc3)OC(=O)[C@H]2[C@@H]1C(=O)Nc1nc2ccccc2s1 , test system: Pro-neuregulin-1, membrane-bound isoform (Homo sapiens).
Reply text: 0.756

Inquiry: C=C[C@H](CO[Si](CC)(CC)CC)N(Cc1ccc(OC(C)=O)c(OC)c1)S(=O)(=O)c1ccc(Br)cc1 ?
Reply text: 1.27

Inquiry: CC1(C)[C@@H]2CC(C(O)C3C=CC4C(=O)N(Cc5ccccc5)C(=O)C4N3n3cnnc3)=C[C@H]1C2 (stereo not given in full) ?
Reply text: 1.56

Inquiry: [N-]=[N+]=Nc1ccccc1[C@H]1OC(c2ccc(OCCCO)cc2)=N[C@@]1(CCS(=O)(=O)c1ccccc1)C(=O)NCC(O)CO (stereo not given in full) ?
Reply text: 1.75

Inquiry: COc1cc2c(cc1O)C(C1CC1)N(Cc1sc3ccccc3c1Cl)CC2 (stereo not given) ?
Reply text: -0.214

Inquiry: CC(C)N1C(=O)C[C@@](C(=O)NCC(F)(F)F)(c2ccc([N+](=O)[O-])cc2)[C@H]1c1ccc(CO)cc1 ?
Reply text: 0.769

Inquiry: COC(=O)[C@@]1(Cc2ccc(OC)cc2)[C@H]2c3cc(C(=O)N(C)C)n(CCc4ccccn4)c3C[C@H]2CN1C(=O)c1ccccc1 ?
Reply text: 0.428
